All figures here come from patent US20240050576A1.

system: human FXN; test: FXN mRNA expression by qRT-PCR in GM15850 cells after 48 hr compound treatment; type: cell-based; conditions: Homo sapiens; GM15850 cells, 48 hr incubation, hFXN normalized to hGAPDH; read-out: EC50 WT (nM, 48 hr)
Quantity Name: EC50

Prompt: Any idea what its EC50 is? The compound is "Cc1sc2c(c1C)C(c1ccc(Cl)cc1)=N[C@@H](CC(=O)NC1CCN(CCOCCOCCOCCOCCOCCC(=O)NCCCN(CCCNC(=O)CCNC(=O)c3nc(NC(=O)CCNC(=O)c4cc(NC(=O)c5nc(NC(=O)CCNC(=O)c6cc(NC(=O)c7nccn7C)cn6C)cn5C)cn4C)cn3C)CC(F)(F)F)CC1)c1nnc(C)n1-2"
Completion: 100 to 500 nM

Prompt: Can you handle "Cc1noc(C)c1-c1cnc2c(-c3ccc(C(=O)NCCOCCOCCOCCOCCOCCOCCOCCNC(=O)CCNC(=O)c4nc(NC(=O)CCNC(=O)c5cc(NC(=O)c6nc(NC(=O)CCNC(=O)c7cc(NC(=O)c8nccn8C)cn7C)cn6C)cn5C)cn4C)cc3)cn([C@@H](C)c3ccccn3)c2c1" next?
Completion: 100 to 500 nM

Prompt: Can you handle "Cc1sc2c(c1C)C(c1ccc(Cl)cc1)=N[C@@H](CC(=O)Nc1ccc(OCCOCCOCCOCCOCCOCCC(=O)N(C)CCCN(C)CCCNC(=O)CCNC(=O)c3nc(NC(=O)CCNC(=O)c4cc(NC(=O)c5nc(NC(=O)CCNC(=O)c6cc(NC(=O)c7nccn7C)cn6C)cn5C)cn4C)cn3C)cc1)c1nnc(C)n1-2" next?
Completion: 100 to 500 nM
